# procedureSummary: Spectrophotometric values of pKa2 and pKa3
quantity: pKa

[
  {
    "smilesRepresentation": "Cc1c(O)c(=O)ccn1CCC(=O)O",
    "pKa": 9.51
  },
  {
    "smilesRepresentation": "Cc1c(O)c(=O)ccn1CCO",
    "pKa": 9.72
  },
  {
    "smilesRepresentation": "CCc1c(O)c(=O)ccn1CCCC(=O)O",
    "pKa": 9.99
  },
  {
    "smilesRepresentation": "Cc1c(O)c(=O)ccn1C",
    "pKa": 9.64
  },
  {
    "smilesRepresentation": "CCc1c(O)c(=O)ccn1CCO",
    "pKa": 9.75
  },
  {
    "smilesRepresentation": "CCc1c(O)c(=O)ccn1CCC(=O)O",
    "pKa": 9.91
  }
]
